This section presents compounds with their documented GI50 values.
System: OVCAR-4
Experiment: NCI tumour cell line growth inhibition, 48 h
Activity calls are given as the source filed them. No stated cut-off is given here; in the data, active = GI50 up to about 1.1 µM and inactive = higher.

- COC(=O)/C(=N\NC(N)=O)C(C(=O)C(=O)Nc1ccccc1OC)c1nc2ccc([N+](=O)[O-])cc2nc1O (stereo not given): 53 µM (inactive)
- O=C(Nc1ccc(Cl)c(Cl)c1)N1N=C2c3ccccc3CCC2C1c1ccc(Cl)cc1 (stereo not given): > 100 µM (inactive)
- COCc1nc2c(OC)c(-c3nc4ccc(N5CCN(C)CC5)nc4[nH]3)cc(OC)c2[nH]1: 46.1 µM (inactive)
- O=C1CC(c2ccc(Cl)cc2)=Nc2ccccc2N1: 28.6 µM (inactive)

Could you now look at the following compound, please?
Challenge: What value of GI50 on OVCAR-4 does "CCN(CC)c1ccc2cc(C(=O)Nc3ccccc3OC)c(=N)oc2c1" have?
Response given: 27.5 µM (inactive)
